src = the supplement of paper PMC9170038

Test system: K4 kissing-loop RNA reporter;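 also: bound reporter read as fluorescence of individual clusters on recovered sequencing chips by microscopy, with normalized cluster intensities fitted with a binding model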
Assay: apparent KD of K4 kissing-loop reporter; higher = weaker reporter binding
Settings: Eterna round: R107; input ligand: theophylline 20 uM
property.name: apparent KD of K4 kissing-loop reporter (nM)
Respond numerically; units are nM and should not be typed.

Completed entries (count: 4):
1. AAUAUAGUGAUGUUAUAUAAGAAGGAGUUACGAGGACCGGUACGGCCGCCACUCGAAACGAGUGAGGGCUUGGGAGAUUGGGCCC [SSTryptA.I]; 377
2. AAAUUUAAUAUAUUUAAUUAAUUAAGUGAUACCAGACAUUAAUAAGUCCCUUGGCAGCGCAAUGCAGUGAUGUUGCUUAUAAUAA [#18 K4 Theophylline A Same State]; 136
3. AGAUGGAAUAGAAGGAGCGGCGCCAGUGAUGUUGGAUGCCGCGGGUGAAUCAGAUCAUAGUGCCAGGUAGGUCGCUAUUUCAGCG [Anedin]; 116
4. GGCGGCCGCGCGCAAGCGCGGCCGGCCGAUACCAGCGCGACGGCGCGCCCUUGGCAGCGGCGCCGAGUGAUGUUCGGCCUGCCGU [#2 Same State - Theophylline A Attempt #15 (HarryS)]; 94.2

Give the value of apparent KD of K4 kissing-loop reporter reported for the following: `UGAUAGGACAGAAGGAGCGGUAGUGAUGUUACCAAAAGGCUAAGGUGUCAAAAGACACCCUACCAGGUAGGUCGCUGUCCUAUCU`
121

Please supply the value of reported apparent KD of K4 kissing-loop reporter for the item UUGGAGUGAUGUUCCAUGUCUUGAGCCGAAGGAGCGCCUUUCUAGGCAGGUAGGUCGCGGCAGAAGGUACCAGUGAUGUUGGAAA [Same State Arginine A GF9]
222

Kindly indicate its recorded apparent KD of K4 kissing-loop reporter. Item: CCUUCUCUUGAUAGUGAUGUUGUCAAGGGCAAGGAUAUCAUCUUAAUGAGAAGGUGUCCUUGAUAACAUGGAGGUCUGAAACAGA [Omei KL FMN A Exc C v7]
380

Give the reported value of apparent KD of K4 kissing-loop reporter for this record: AGCCUUACAUCGGCCGCCACUUCCCUGGCAGUGAUGUUGCCGUAGACAAUCAUUCUACCCUGGAGAAGGACCGGGAUGCAGAAAC [theeternabot_sameState_KL_Trp_B_8]
223

Give recorded apparent KD of K4 kissing-loop reporter. AAAUAUUCGAGUGAUGUUCGAUAAAUUUCAGAGGAUAUGCUUAAAAGCAGAAGGCUGUAUUUCUAUUUGUUAUGAAAUUUUAUAA [JR_ExcFMNA_Sub003]
109

Kindly indicate its recorded apparent KD of K4 kissing-loop reporter. Item: GCGAUUCAGUGAUGUUGGAAAUACAGGGAUACCAGCCGAGAAUAAGGCCCUUGGCAGCUUAAUAGGAAAGAACUAAGUAAGACGC [Theophylline A Same State; Euphoria Solution 2]
616

Output apparent KD of K4 kissing-loop reporter of AAGAGGUAGGCGGCCGCCACUUGUUGUGAACACAUACGAGCCAGUGAUGUUGGUAUUGUGUGCGGAAGGACCGGGCCUACCUGAA [Exclusion - Tryptophan B (Freestyle 21)]
46

* * *

Tested on: MS2 coat protein
Assay: apparent KD of MS2 coat protein; designed switch direction (-1 OFF switch, 1 ON switch): -1; higher = weaker reporter binding
Conditions: Eterna round: R95; input ligand: FMN 200 uM
Entries annotated with measured apparent KD of MS2 coat protein
Report the value in µM with no unit label.

Consider the following illustrative entries.
1) GCAUUGAGUGUGAGGAUAUGCUGGUCAUAAGAUCAGCAGAAGGCACAUGAGGAUCACCCAUGUGAAAACAAUGC [Mat - Exclusion 4 - JL Mod - D66] (puzzle: Brourd's mod of Exclusion 4); 0.0931
2) GAUUAUGCGAGCUUUAGGGACAUGAGGAUCACCCAUGUUCGUCUUAUUAGUCUAAGUACACUGACAUACCUAAAUCU [JMF 61] (puzzle: Sensor v3, turn-off variant 1); 0.0133

Attention now turns to another entry.
Look up and report measured apparent KD of MS2 coat protein for this entry: GAAAAGGUAGGAUAUACGAAAAAAAAGGGUUGAAAAAAAACACAUGAGGAUCACCCAUGUAGAAGGACCAAAAG [salish99_ex2_r3_080] (puzzle: Exclusion 2)
0.14

* * *

System: MS2 coat protein
Assay: apparent KD of MS2 coat protein; designed switch direction (-1 OFF switch, 1 ON switch): -1; higher = weaker reporter binding
Details: input ligand: FMN 200 uM
property.name: apparent KD of MS2 coat protein (nM)
Provide only the numeric value, understood in nM.

1) CAGUACUGAGGAUAUACAUGAGGAUCACCCAUGUGUUCCGGCUAGGAUACUAGCAAAGGAAGAAGGCAGUACUG [Mat - Exclusion 3 - Eli Mod - D23] (Eterna round: R97, puzzle: Exclusion 3); 22.7

Lab note: MS2 coat protein assay, enter apparent KD of MS2 coat protein for GGCAUGCAAGGAUAUACUUGCAGUGAUGUUCGAUAAAUUCUACUUGAGGAUCACCCAAGUAGAAGGUGCAUGCC [Exclusion 2 (Mod4 JL EX2 4.74 Vienna UCT mod of Mamaed)] (Eterna round: R97, puzzle: Exclusion 2) here
15.2

State, for MS2 coat protein, measured apparent KD of MS2 coat protein of the sequence listed here: CGGAUGUUAGGAUAUUAGUAGUAGUCAGAAAAGACUAUUACUGAGAAGGAACAUGAGGAUCACCCAUGUUUCCG [Mat - Exclusion 4 - Eli Mod - D44] (Eterna round: R97, puzzle: Exclusion 4)
17

Give reported apparent KD of MS2 coat protein for GCAAAUCAUGUAGGAUAUGCGUGGCGAAGCUAUGCAGAAGGACAUGAGGAUCACCCAUGUGCUUCCGUCUGCGUACAGACGGUA [Mat - Exclusion NG 1 - Mod of JL - D18] (Eterna round: R96, puzzle: Exclusion NG 1) (MS2 coat protein)
93.5

GET apparent KD of MS2 coat protein where system = MS2 coat protein and item = CGUGGUAGGCAGGAUAUUUUAGACAAUUACUUGAAAGAAGGGCCUACAUGAGGAUCACCCAUGUGCUCUUCUUG [EX6 B.3] (Eterna round: R97, puzzle: Exclusion 6)
16.9

* * *

Each entry below carries its recorded apparent KD of MS2 coat protein.
System: MS2 coat protein
Test: apparent KD of MS2 coat protein; designed switch direction (-1 OFF switch, 1 ON switch): -1; higher = weaker reporter binding
Conditions: input ligand: none
Just the number in nM, nothing appended.

Below, each entry is followed by its recorded apparent KD of MS2 coat protein result.
1) ACAAGUUUUUAGAUUCUUAACAUGAGGAUCACCCAUGUGCUCGUCUUGUUUGUACUAUCACCGAAGGUGAUAGUACA (Eterna round: R97, puzzle: Sensor, turn-off variant 1); 70
2) AUAAAGUGAGGAUAUAUAAGACACGGUGAUACACCGUGAAAAUAGAAGGUACAUGAGGAUCACCCAUGUUGGGC [Mod of Anonveat 19 - Jieux - Exclusion 4] (Eterna round: R97, puzzle: Exclusion 4); 53.7
3) AGUAUGCGGCAGGAUAUCCAUCCGCGAAAAGGUGGAGAAGGGCUGACAUGAGGAUCACCCAUGUGCGUCCUGUA [salish99_ex6_r4_030] (Eterna round: R97, puzzle: Exclusion 6); 17.7
4) CGUCUGUAAGGAUAUGGUAGCAUUUACAUGAGGAUCACCCAUGUUACAUGGGACUAGUGAUUAGAAGGUACGAACG [EX5 #55] (Eterna round: R97, puzzle: Exclusion 5); 322
5) CGGGCCGGCCUUCCGGCCGGCCCGACAUGAGGAUCACCCAUGUAGGAUAUCCCGGCUGCCGGCCGGGAGAAGGGCGUGCGUCCU [-50.4, -49.5 kcal, 14% A] (Eterna round: R96, puzzle: Exclusion NG 3); 91.6
6) AACCUGAGGCAAAGCUUUAGGUGUACAUGAGGAUCACCCAUGUAGGAUAUGGUAGGCAAAGCUUACCAGAAGGACAUUAUGAUG [Mat - Exclusion NG 3 - Mod of JL - D51] (Eterna round: R96, puzzle: Exclusion NG 3); 62.9
7) UUUUUACAUGAGGAUCACCCAUGUGAGGAUAUGAGGGUUAGCUUAAAUGGGCUGACUUUCAGAAGGCACAUGAA [JR_Ex1_Sub059] (Eterna round: R97, puzzle: Exclusion 1); 128
8) UUGGUGUCAGGAUAUGCUUAAUAUAUUUUAUUAUAAUAUAUACAUGAGGAUCACCCAUGUAGAAGGGACAUUGU [LRO-Excl2-07-Fireball XL5] (Eterna round: R97, puzzle: Exclusion 2); 45.8

Here's the next entry for you.
Tell me apparent KD of MS2 coat protein of AACUGGACAGGAUAUGUUCUUGAGCACUUGAGGAUCACCCAAGUCGUCGAGAACUCAGGCACAGAAGGGUUAAUGA [Bera] (Eterna round: R97, puzzle: Exclusion 5) when tested on MS2 coat protein.
17.7
